- Tested on: OVCAR-3 ovarian
- ASSAY_REMARKS: NCI tumour cell line growth inhibition, 48 h
ASSAY_METRIC: TGI

Here's what some known entries look like.
State TGI (OVCAR-3 ovarian) of COc1ccc(/C=C/CN(C)CCc2ccccc2)cc1OC .
> 100 µM

System OVCAR-3 ovarian. Read-out TGI. Item C/C(CC(=O)Nc1ccc(C)cc1C)=N/N=C(N)N . Report value.
> 100 µM

Send back OVCAR-3 ovarian TGI of COc1cc([N+](=O)[O-])cc2c3c(n(C)c12)[C@@]1(C)CCC2c4ccc(OCc5ccccc5)cc4CCC2C1C3 (stereo partly specified) only.
> 100 µM

Give TGI; test system OVCAR-3 ovarian; molecule COc1ccc(C2=CC3CCC2C3)cc1 (stereo unspecified)
> 100 µM

Fill: TGI (OVCAR-3 ovarian) for this molecule O=c1/c(=C/c2ccco2)sc2nc3ccccc3n12
> 100 µM

The record that follows has no TGI shown yet.
Please report the measured TGI for CCOc1cc(-c2nc3ccccn3c2/N=C/c2cc(Br)ccc2O)ccc1O tested on OVCAR-3 ovarian.
34 µM
